Recorded pIC50, one value per entry.
- Measured target: aromatase (CYP19A1) (Homo sapiens, UniProt P11511)
- Construct: host or cells: JEG-3 cells
- Sequence (P11511 1-503): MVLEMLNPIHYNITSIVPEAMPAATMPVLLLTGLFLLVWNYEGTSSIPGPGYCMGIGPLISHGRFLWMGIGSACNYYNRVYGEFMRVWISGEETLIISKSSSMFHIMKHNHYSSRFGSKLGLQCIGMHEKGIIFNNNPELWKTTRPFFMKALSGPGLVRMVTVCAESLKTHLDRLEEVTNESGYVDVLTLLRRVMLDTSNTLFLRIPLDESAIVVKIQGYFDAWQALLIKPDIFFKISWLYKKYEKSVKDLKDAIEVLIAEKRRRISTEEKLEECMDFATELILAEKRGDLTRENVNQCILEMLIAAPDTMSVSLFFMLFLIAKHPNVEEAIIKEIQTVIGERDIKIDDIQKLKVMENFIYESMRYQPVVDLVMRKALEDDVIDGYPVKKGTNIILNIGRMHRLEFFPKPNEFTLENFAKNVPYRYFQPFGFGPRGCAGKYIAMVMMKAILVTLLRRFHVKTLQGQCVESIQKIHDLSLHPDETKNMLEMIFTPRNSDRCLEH
- Experimental protocol: Aromatase activity assay, modified tritiated water assay in JEG-3 cells
- Format: cell-based
- Recorded conditions: Arom IC50, JEG-3 cells, 1 h incubation, triplicate
- Procedure: Seven compounds including the two carbamate side products were investigated for their aromatase inhibitory activity at 10 nM using the previously reported modified tritiated water assay.[20] JEG-3 cells (ATCC) were cultured in Eagle's minimal essential medium (EMEM) supplemented with 10% fetal calf serum (FCS). […] The aromatase activity was measured using a modified tritiated water assay. […] [^3H]H2O in the supernatant was quantified using scintillation counting. […]
Conceptually, pIC50 converts a concentration in mol/L into minus its log10.

Compound: NC(=O)Oc1ccc(C(c2cc3cc(Cl)ccc3o2)n2cncn2)cc1 (centres unmarked)
pIC50: 8.39

Now for another entry.
Memo: N#Cc1ccc(C(c2cc3ccc(OC(N)=O)cc3o2)n2cncn2)cc1 (centres unmarked) [10b] , reported pIC50: 9.19

====

- Measured target: aromatase (CYP19A1) (Homo sapiens, UniProt P11511)
- Construct: host or cells: JEG-3 cells
- Sequence (P11511 1-503): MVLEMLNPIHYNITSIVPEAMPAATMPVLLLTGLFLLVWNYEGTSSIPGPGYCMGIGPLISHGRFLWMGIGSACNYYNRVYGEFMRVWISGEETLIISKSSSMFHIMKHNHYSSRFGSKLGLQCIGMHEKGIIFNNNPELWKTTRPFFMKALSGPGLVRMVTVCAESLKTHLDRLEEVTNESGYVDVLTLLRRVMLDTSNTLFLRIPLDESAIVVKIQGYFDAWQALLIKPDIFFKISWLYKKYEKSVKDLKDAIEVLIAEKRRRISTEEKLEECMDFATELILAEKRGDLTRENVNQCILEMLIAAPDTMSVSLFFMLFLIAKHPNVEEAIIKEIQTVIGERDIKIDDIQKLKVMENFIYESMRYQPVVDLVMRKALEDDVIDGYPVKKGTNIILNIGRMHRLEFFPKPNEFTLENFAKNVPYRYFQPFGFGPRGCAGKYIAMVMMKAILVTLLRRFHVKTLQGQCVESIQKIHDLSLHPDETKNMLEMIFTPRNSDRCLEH
- Experimental protocol: Aromatase activity assay, modified tritiated water assay in JEG-3 cells
- Assay type: cell-based
- Recorded conditions: JEG-3 cells, 1 h incubation, triplicate; read-out: Arom IC50
pIC50: −log10 of the molar value.
Recorded pIC50, one value per entry.

Compound: NC(=O)Oc1ccc2cc(C(=O)c3ccc(Cl)cc3)oc2c1
Measurement: ≤ 6.00

Compound: NS(=O)(=O)Oc1ccc2c3c(c(=O)oc2c1)CCCCC3 [STX64, Irosustat, reference compound]
Measurement: < 6.00

Compound: N#Cc1ccc(C(=O)c2cc3ccc(OS(N)(=O)=O)cc3o2)cc1 [18f]
Measurement: < 6.00

Compound: NS(=O)(=O)Oc1ccc(C(c2cc3cc(Cl)ccc3o2)n2cncn2)cc1 (centres unmarked)
Measurement: < 8.00

Compound: NS(=O)(=O)Oc1ccc2cc(C(=O)c3ccc(Cl)cc3)oc2c1 [18b]
Measurement: < 6.00

Compound: COc1ccc(C(=O)c2cc3ccc(OS(N)(=O)=O)cc3o2)cc1 [18e]
Measurement: < 6.00

Compound: NS(=O)(=O)Oc1ccc2cc(C(=O)c3ccc(F)cc3)oc2c1 [18a]
Measurement: < 6.00

Now for another entry.
Memo: NS(=O)(=O)Oc1ccc2cc(C(=O)c3ccc(Cl)cc3Cl)oc2c1 [18d] , reported pIC50: < 6.00
